pIC50 listing for selected compounds.
Target: Dual specificity tyrosine-phosphorylation-regulated kinase 1A (Homo sapiens, UniProt Q13627)
Scale: negative log10 of molar concentration, which is what pIC50 denotes.

Recorded results for 3 compounds are shown here.
[
  {
    "recordSmiles": "Oc1ccc(-c2n[nH]c3ncc(Br)cc23)cc1",
    "pIC50": 7.25
  },
  {
    "recordSmiles": "COc1ccc(-c2cnc3[nH]nc(-c4cccc(NC(C)=O)c4)c3c2)cc1OC",
    "pIC50": 6.20
  },
  {
    "recordSmiles": "CC(=O)Nc1ccc(-c2n[nH]c3ncc(Br)cc23)cc1",
    "pIC50": 5.96
  }
]

Please examine the following record next.
Item COc1ccc(-c2n[nH]c3ncc(Nc4ccccc4)cc23)cc1 has what recorded pIC50? 6.44

* * *

pIC50 listing for selected compounds.
Molecular target: Dual specificity tyrosine-phosphorylation-regulated kinase 1B (Homo sapiens, UniProt Q9Y463)
Sequence (Q9Y463 whole entry): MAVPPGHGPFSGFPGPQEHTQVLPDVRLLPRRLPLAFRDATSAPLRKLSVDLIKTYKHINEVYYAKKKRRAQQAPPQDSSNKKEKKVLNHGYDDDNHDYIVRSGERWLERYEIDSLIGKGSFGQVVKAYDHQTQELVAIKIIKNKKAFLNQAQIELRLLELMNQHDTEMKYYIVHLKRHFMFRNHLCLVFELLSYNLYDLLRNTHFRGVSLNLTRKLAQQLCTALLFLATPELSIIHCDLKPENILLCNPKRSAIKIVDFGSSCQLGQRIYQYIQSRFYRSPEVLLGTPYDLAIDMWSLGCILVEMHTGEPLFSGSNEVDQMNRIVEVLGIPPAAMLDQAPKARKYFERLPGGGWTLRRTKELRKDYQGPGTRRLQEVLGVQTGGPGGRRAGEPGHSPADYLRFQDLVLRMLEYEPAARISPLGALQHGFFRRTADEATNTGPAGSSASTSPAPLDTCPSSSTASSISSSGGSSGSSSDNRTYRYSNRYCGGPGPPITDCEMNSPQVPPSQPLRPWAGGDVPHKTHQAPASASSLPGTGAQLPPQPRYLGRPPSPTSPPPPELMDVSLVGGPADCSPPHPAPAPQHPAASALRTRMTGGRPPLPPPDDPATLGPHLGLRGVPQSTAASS
Scale: negative log10 of molar concentration, which is what pIC50 denotes.

Recorded results for 5 compounds are shown here.
[
  {
    "recordSmiles": "Brc1cnc2[nH]nc(-c3cnn(Cc4ccccc4)c3)c2c1",
    "assayResult": 6.92
  },
  {
    "recordSmiles": "Oc1cccc(-c2cnc3[nH]nc(-c4cccc(O)c4)c3c2)c1",
    "assayResult": 7.41
  },
  {
    "recordSmiles": "Oc1ccc(-c2cnc3[nH]nc(-c4ccc(O)cc4)c3c2)cc1",
    "assayResult": 8.22
  },
  {
    "recordSmiles": "COc1ccc(-c2n[nH]c3ncc(-c4ccc(OC)c(OC)c4)cc23)cc1",
    "assayResult": 7.01
  },
  {
    "recordSmiles": "COc1cccc(-c2n[nH]c3ncc(Nc4cccc(OCc5ccccc5)c4)cc23)c1",
    "assayResult": 5.43
  }
]

Item CC(=O)Nc1cccc(-c2n[nH]c3ncc(-c4ccc(O)c(O)c4)cc23)c1 has what recorded pIC50? 7.54

Item COc1ccc(-c2n[nH]c3ncc(Nc4cc(C(F)(F)F)cc(C(F)(F)F)c4)cc23)cc1 has what recorded pIC50? 5.90

Item COc1ccc(-c2n[nH]c3ncc(Nc4cccc(O)c4)cc23)cc1 has what recorded pIC50? 7.51

Item CC(=O)Nc1ccc(-c2cnc3[nH]nc(-c4ccc(O)cc4)c3c2)cc1 has what recorded pIC50? 7.89

Item COc1ncc(-c2n[nH]c3ncc(Br)cc23)cn1 has what recorded pIC50? 6.85

* * *

UniProt Q9Y463: reported pIC50 for various compounds.
Scale: negative log10 of molar concentration, which is what pIC50 denotes.

[
  {
    "recordSmiles": "Brc1cnc2[nH]nc(-c3cncnc3)c2c1",
    "measuredEndpoint": "pIC50",
    "assayResult": 5.39
  },
  {
    "recordSmiles": "COc1ccc(-c2cnc3[nH]nc(-c4cccc(NC(C)=O)c4)c3c2)cc1OC",
    "measuredEndpoint": "pIC50",
    "assayResult": 6.54
  },
  {
    "recordSmiles": "COc1ncc(-c2n[nH]c3ncc(-c4ccc(O)c(O)c4)cc23)cn1",
    "measuredEndpoint": "pIC50",
    "assayResult": 7.82
  },
  {
    "recordSmiles": "Brc1cnc2[nH]nc(-c3ccc4cc[nH]c4c3)c2c1",
    "measuredEndpoint": "pIC50",
    "assayResult": 6.21
  }
]

Query the reported pIC50 for UniProt Q9Y463; item: CS(=O)(=O)Nc1ccc(-c2cnc3[nH]nc(-c4ccc(O)cc4)c3c2)cc1 8.30

Query the reported pIC50 for UniProt Q9Y463; item: COc1ccc(-c2n[nH]c3ncc(-c4ccc(NC(N)=O)cc4)cc23)cc1 8.70

Query the reported pIC50 for UniProt Q9Y463; item: COc1cccc(-c2n[nH]c3ncc(Nc4ccccc4)cc23)c1 6.24

Query the reported pIC50 for UniProt Q9Y463; item: COc1ccc(-c2n[nH]c3ncc(Nc4cccc(OCc5ccccc5)c4)cc23)cc1 6.51

Query the reported pIC50 for UniProt Q9Y463; item: NC(=O)Nc1ccc(-c2cnc3[nH]nc(-c4ccc(O)cc4)c3c2)cc1 8.00

* * *

Test system: LoVo
Assay: Cytotoxicity against human LOVO cells assessed as reduction in cell viability
Assay type: functional, cell-based
measuredEndpoint: pIC50
Scale: negative log10 of molar concentration, which is what pIC50 denotes.

Item Oc1ccc(-c2n[nH]c3ncc(-c4ccc(O)c(O)c4)cc23)cc1 has what recorded pIC50? 4.72

* * *

Target: Dual specificity tyrosine-phosphorylation-regulated kinase 1A (Homo sapiens, UniProt Q13627)
Test: Inhibition of DYRK1A (unknown origin)
measuredEndpoint: log10(IC50) (log10 of the value in µM)
Units before log transform: µM; reported quantity: IC50; transform: log10.

Recorded results for 2 compounds are shown here.
[
  {
    "recordSmiles": "Oc1ccc(-c2cnc3[nH]nc(-c4ccccc4)c3c2)cc1",
    "measuredEndpoint": "log10(IC50)",
    "assayResult": -1.36
  },
  {
    "recordSmiles": "COc1ccc(-c2n[nH]c3ncc(Nc4cc(C(F)(F)F)cc(C(F)(F)F)c4)cc23)cc1",
    "measuredEndpoint": "log10(IC50)",
    "assayResult": 0.55
  }
]

Item Oc1ccc(-c2cnc3[nH]nc(-c4ccc(O)cc4)c3c2)cc1 has what recorded log10(IC50)? -2.30

Item COc1ncc(-c2n[nH]c3ncc(-c4ccc(OC)c(OC)c4)cc23)cn1 has what recorded log10(IC50)? -0.52

Item CC(=O)Nc1cccc(-c2n[nH]c3ncc(-c4ccc(O)c(O)c4)cc23)c1 has what recorded log10(IC50)? -1.62

Item COc1ccc(-c2n[nH]c3ncc(Nc4cccc(O)c4)cc23)cc1 has what recorded log10(IC50)? -1.48

Item Brc1cnc2[nH]nc(-c3cncnc3)c2c1 has what recorded log10(IC50)? -1.04

Item COc1ccc(-c2n[nH]c3ncc(Nc4cccc(OCc5ccccc5)c4)cc23)cc1 has what recorded log10(IC50)? -0.51

Item COc1ccc(-c2n[nH]c3ncc(-c4ccc(OC)c(OC)c4)cc23)cc1 has what recorded log10(IC50)? -1.12

* * *

Target: Dual specificity tyrosine-phosphorylation-regulated kinase 1B (Homo sapiens, UniProt Q9Y463)
IC50 listing for selected molecules.
Number only, in µM; omit the unit.

[
  {
    "recordSmiles": "Brc1cnc2[nH]nc(-c3ccsc3)c2c1",
    "IC50 (µM)": 0.736
  },
  {
    "recordSmiles": "Oc1ccc(-c2n[nH]c3ncc(Br)cc23)cc1",
    "IC50 (µM)": 0.087
  }
]

Item COc1ccc(-c2n[nH]c3ncc(Br)cc23)cc1 has what recorded IC50? 0.054

* * *

Target: Dual specificity tyrosine-phosphorylation-regulated kinase 1A (Homo sapiens)
Threshold 200 nM: IC50 strictly smaller gives Fulfilled, otherwise Not fulfilled.

Consider the worked cases shown below.
[
  {
    "recordSmiles": "COc1ccc(-c2n[nH]c3ncc(-c4ccc(NC(C)=O)cc4)cc23)cc1",
    "labelClass": "Fulfilled"
  },
  {
    "recordSmiles": "Oc1cccc(-c2cnc3[nH]nc(-c4cccc(O)c4)c3c2)c1",
    "labelClass": "Not fulfilled"
  },
  {
    "recordSmiles": "COc1cccc(-c2n[nH]c3ncc(Nc4cccc(OCc5ccccc5)c4)cc23)c1",
    "labelClass": "Not fulfilled"
  },
  {
    "recordSmiles": "COc1cccc(-c2n[nH]c3ncc(Nc4cccc(O)c4)cc23)c1",
    "labelClass": "Not fulfilled"
  },
  {
    "recordSmiles": "CC(=O)Nc1cccc(-c2n[nH]c3ncc(Br)cc23)c1",
    "labelClass": "Not fulfilled"
  }
]

Attention now turns to another entry.
Is it true that IC50 reported for COc1cccc(-c2n[nH]c3ncc(Nc4ccccc4)cc23)c1 is less than 200 nM? Not fulfilled

* * *

UniProtKB Q9Y463: reported log10 of IC50 for various molecules.
Units before log transform: nM; reported quantity: IC50; transform: log10.

[
  {
    "recordSmiles": "COc1cccc(-c2n[nH]c3ncc(Nc4cccc(O)c4)cc23)c1",
    "measuredEndpoint": "log10 of IC50",
    "assayResult": 2.28
  },
  {
    "recordSmiles": "CC(=O)Nc1ccc(-c2n[nH]c3ncc(Br)cc23)cc1",
    "measuredEndpoint": "log10 of IC50",
    "assayResult": 2.75
  },
  {
    "recordSmiles": "O=C(O)c1ccc(-c2n[nH]c3ncc(Br)cc23)cc1",
    "measuredEndpoint": "log10 of IC50",
    "assayResult": 3.02
  },
  {
    "recordSmiles": "Oc1ccc(-c2cnc3[nH]nc(-c4ccccc4)c3c2)cc1",
    "measuredEndpoint": "log10 of IC50",
    "assayResult": 1.75
  },
  {
    "recordSmiles": "Nc1cccc(-c2n[nH]c3ncc(Br)cc23)c1",
    "measuredEndpoint": "log10 of IC50",
    "assayResult": 2.80
  },
  {
    "recordSmiles": "COc1ccc(-c2n[nH]c3ncc(-c4ccc(NC(C)=O)cc4)cc23)cc1",
    "measuredEndpoint": "log10 of IC50",
    "assayResult": 0.85
  },
  {
    "recordSmiles": "CC(=O)Nc1cccc(-c2n[nH]c3ncc(Br)cc23)c1",
    "measuredEndpoint": "log10 of IC50",
    "assayResult": 2.41
  },
  {
    "recordSmiles": "Brc1cnc2[nH]nc(-c3ccccc3)c2c1",
    "measuredEndpoint": "log10 of IC50",
    "assayResult": 3.31
  },
  {
    "recordSmiles": "COc1ccc(-c2n[nH]c3ncc(Nc4ccccc4)cc23)cc1",
    "measuredEndpoint": "log10 of IC50",
    "assayResult": 2.27
  }
]

Please examine the following record next.
Item COc1ncc(-c2n[nH]c3ncc(-c4ccc(OC)c(OC)c4)cc23)cn1 has what recorded log10 of IC50? 2.22
